target: Glutamate NMDA receptor
method_notes: In vitro inhibition of binding of [3H]MDL-105519 towards glycine binding site of NMDA receptor in rat
pIC50: −log10 of the molar value.
measurement_type: pIC50

Examples from the recorded data:
{"columns": ["compound", "pIC50"],
 "data": [
  ["C[C@@H](NCc1cc(Br)cc2nc(O)c(O)nc12)C(=O)O", 6.92],
  ["O=P(O)(O)CNCc1cc(C(F)(F)F)cc2nc(O)c(O)nc12", 6.52],
  ["C[C@H](NCc1cc(Br)cc2nc(O)c(O)nc12)C(=O)O", 5.66],
  ["Br.O=C(O)CNCc1cc([N+](=O)[O-])cc2nc(O)c(O)nc12", 6.12],
  ["O=C(O)C1CCN(Cc2cc([N+](=O)[O-])cc3nc(O)c(O)nc23)CC1", 5.41],
  ["O=P(O)(O)CNCc1cc(Br)cc2nc(O)c(O)nc12", 7.00]
]}

A: CC(OCc1cc([N+](=O)[O-])cc2nc(O)c(O)nc12)C(=O)O (stereo unspecified)
B: Br.C[C@H](NCc1cc([N+](=O)[O-])cc2nc(O)c(O)nc12)C(=O)O
Lookup: Lower value for measured pIC50? Options: A , B Provide the label of your selected option as the answer.
Found: B
(B: 5.77, A: 6.38)

====

target: Glutamate NMDA receptor
method_notes: In vitro inhibition of binding of [3H]MDL-105519 towards glycine binding site of NMDA receptor in rat
measurement_type: IC50 (nM)

{"columns": ["smiles_input", "IC50 / nM"],
 "data": [
  ["O=c1[nH]c2cc([N+](=O)[O-])cc(CNCP(=O)(O)O)c2[nH]c1=O", 1000]
]}

I: Br.O=C(O)CCNCc1cc([N+](=O)[O-])cc2nc(O)c(O)nc12
II: O=C(O)CSCc1cc(Br)cc2nc(O)c(O)nc12
Lookup: Lab note: record which item had the higher IC50, I or II . Provide the label of your selected option as the answer.
Found: I
(I: 19000 nM, II: 120 nM)

Source listed as ChEMBL document CHEMBL1132024.
